experiment: Plasma concentration in human at 3.6 g/day, po measured after 0.5 and 1 hr; type: ADME, organism-based
readout.label: concentration at 1 h (nM)
Provide the reading as a plain figure in nM.

(Q) Request the reported concentration at 1 h associated with COc1cc(/C=C/C(=O)CC(=O)/C=C/c2ccc(O)c(OC)c2)ccc1O
(A) 11.1

====

assay: Drug uptake in human serum at 4 g/day, po administered for 3 months; type: ADME, organism-based; conditions: read-out: Drug uptake
readout.label: concentration at 3 months (nM)
I only need the number, in nM, no unit after it.

(Q) If you can, please state the reported concentration at 3 months value of COc1cc(/C=C/C(=O)CC(=O)/C=C/c2ccc(O)c(OC)c2)ccc1O .
(A) 510
